System: OVCAR-8
Test: NCI tumour cell line growth inhibition, 48 h
Active and inactive are the calls of the source. Rule as the data show it: active = GI50 up to about 1.1 µM and inactive = higher.
experimental-readout: GI50

{"columns": ["compound", "recorded-value"],
 "data": [
  ["COC(=O)C1Cc2c(n(Cc3ccccc3)c3ccccc23)C(CCC(=O)O)N1C(C)C (stereo not given)", "> 100 µM (inactive)"],
  ["COC(=O)c1cc(C#Cc2cc(OC)ccc2OC)ccc1OC", "37.1 µM (inactive)"],
  ["CC(C)[C@@H](C)[C@@]1(C)C[C@@H]1[C@@H](C)[C@H]1CC[C@@H]([C@@H]2CC=C3C[C@@H](O)CC[C@]3(C)C2=O)[C@]1(C)CCO", "12.7 µM (inactive)"],
  ["O=C1CC2Sc3ccccc3N=C2N1c1ccc(Cl)cc1Cl (stereo not given)", "59.3 µM (inactive)"],
  ["CCN(CC)CCCNc1ccc2nnn3c4ccc(O)cc4c(=O)c1c23", "2.97 µM (inactive)"]
]}

====

System: CCRF-CEM
Test: NCI tumour cell line growth inhibition, 48 h
The source made the active and inactive calls. No stated cut-off is given here; in the data, active = GI50 up to about 1.1 µM and inactive = higher.

{"columns": ["compound", "GI50"],
 "data": [
  ["C/C=C1/CN2CCc3c([nH]c4ccccc34)[C@@H]2C[C@@H]1Cc1nccc2c1[nH]c1cc(O)ccc12", "2.9 µM (inactive)"],
  ["CCCCCCNc1n[nH]c(=O)c2c1nnn2Cc1ccccc1", "> 100 µM (inactive)"],
  ["COc1ccc(/C=N/NC(=O)C2=C(N)N(c3ccccc3)C(=C(C#N)C#N)S2)cc1", "> 100 µM (inactive)"],
  ["COc1ccc2[nH]c3c(c2c1)CC(=S)N1CCCC(CC3=O)C1 (stereo not given)", "50.2 µM (inactive)"],
  ["Cc1nc(N)nc(CCC(=O)Nc2cccc(C(F)(F)F)c2)c1-c1ccc(Cl)cc1", "> 100 µM (inactive)"]
]}

====

Tested on: NCI-H23
Experiment: NCI tumour cell line growth inhibition, 48 h
Calls of active or inactive are those of the source. Cut-off read from the data, not from the text of the source: active = GI50 up to about 1.1 µM and inactive = higher.
experimental-readout: GI50

{"columns": ["compound", "recorded-value"],
 "data": [
  ["O=[N+]([O-])c1ccc2[nH]nc(OCc3ccccc3Cl)c2c1", "31.9 µM (inactive)"],
  ["COc1cc(OC)c(-n2[nH]c(=O)n(C)c2=O)c(OC)c1", "> 100 µM (inactive)"],
  ["CCCCCn1cc2c3c(cccc31)C1C=C(C)CN(C)[C@@H]1C2.Cc1ccc(C(=O)OC(C(=O)O)C(OC(=O)c2ccc(C)cc2)C(=O)O)cc1 (centres undefined)", "3.37 µM (inactive)"],
  ["CSc1nc2c(ncn2C2OCC(O)C(O)C2O)c(=O)[nH]1 (centres undefined)", "> 100 µM (inactive)"],
  ["CC(=O)OCC1OC(OCCCOP(=O)(OCCC#N)OCC2OC(n3cnc4c(N)ncnc43)C(OC(=O)c3ccccc3)C2OC(=O)c2ccccc2)C(OC(C)=O)C(OC(C)=O)C1OC(C)=O (centres undefined)", "> 100 µM (inactive)"],
  ["NCCCNC(=O)c1csc(NC(=O)c2csc(NC(=O)CCCN)n2)n1", "> 100 µM (inactive)"],
  ["CCCCCCCCCCCCCOCCOCCOCCCCC(O)CCCCCCCCCC1=C[C@H](C)OC1=O (some centres undefined)", "13.7 µM (inactive)"],
  ["COc1cccc(-c2cc(O)c3cc(N)ccc3n2)c1", "9.91 µM (inactive)"],
  ["Cc1ccc(NP(=O)(Oc2ccccc2)N(CCCl)CCCl)cc1 (centres undefined)", "61.5 µM (inactive)"]
]}
